All figures here come from ChEMBL document CHEMBL3751672.

# targetOrSystem: Peroxisome proliferator-activated receptor alpha (Homo sapiens)
# procedureDetails: Transactivation of human PPARalpha expressed in HEK293 cells incubated for 18 hrs by dual luciferase reporter gene assay
# Format: cell-based
recordedMetric: pEC50
Please express pEC50 as -log10 of the molar concentration.

Worked examples follow.
# molecule, pEC50
rows = [
    ("CC(C)(CCCOc1ccc(/C=C/c2ccc(Cl)cc2)cc1)C(=O)O", 6.10),
    ("CC(C)(CCCOc1ccc(/C=C/c2ccc(C(F)(F)F)cc2)cc1)C(=O)O", 6.12),
    ("COc1ccc(/C=C/c2ccc(OCCCC(C)(C)C(=O)O)cc2)cc1", 4.55),
    ("Cc1ccc(/C=C/c2ccc(OCCCC(C)(C)C(=O)O)cc2)cc1", 5.48),
    ("CC(C)(CCCOc1ccc(/C=C/c2ccncc2)cc1)C(=O)O", 3.99),
]

Input: Lab note: need pEC50 with Peroxisome proliferator-activated receptor alpha (Homo sapiens) for entry CC(C)(CCCOc1ccc(/C=C/c2ccc3ccccc3c2)cc1)C(=O)O , please look it up.
Output: 4.05

Input: Quick one: CC(C)(CCCOc1ccc(/C=C/c2ccsc2)cc1)C(=O)O
Output: 5.42

* * *

# targetOrSystem: Peroxisome proliferator-activated receptor alpha (Homo sapiens) (UniProt Q07869)
# Sequence (whole entry): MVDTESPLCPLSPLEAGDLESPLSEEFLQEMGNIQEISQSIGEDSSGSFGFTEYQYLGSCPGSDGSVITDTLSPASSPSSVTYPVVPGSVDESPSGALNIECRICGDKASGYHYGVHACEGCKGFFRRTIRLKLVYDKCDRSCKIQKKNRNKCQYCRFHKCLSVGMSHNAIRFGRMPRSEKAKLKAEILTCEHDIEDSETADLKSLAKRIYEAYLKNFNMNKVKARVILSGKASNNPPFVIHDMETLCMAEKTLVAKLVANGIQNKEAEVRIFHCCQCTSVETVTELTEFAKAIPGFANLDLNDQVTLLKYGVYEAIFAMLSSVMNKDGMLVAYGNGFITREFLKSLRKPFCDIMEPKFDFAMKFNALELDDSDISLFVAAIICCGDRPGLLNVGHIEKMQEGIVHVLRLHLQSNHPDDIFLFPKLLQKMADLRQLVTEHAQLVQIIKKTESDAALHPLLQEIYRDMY
# procedureDetails: Transactivation of human PPARalpha expressed in HEK293 cells at 150 uM incubated for 18 hrs by dual luciferase reporter gene assay relative to gemfibrozil
# Format: cell-based
recordedMetric: Efficacy (%)
Note: unit % is implicit; provide only the numeric part.

Worked examples follow.
# molecule, resultUnit, Efficacy
rows = [
    ("CC(C)(CCCOc1ccc(/C=C/c2ccc(Cl)cc2)cc1)C(=O)O", "%", 227),
    ("COc1ccc(/C=C/c2ccc(OCCCC(C)(C)C(=O)O)cc2)cc1", "%", 164),
    ("CC(C)(CCCOc1ccc(/C=C/c2ccccc2)cc1Cl)C(=O)O", "%", 46),
]

Input: So what's the measured Efficacy for this one? CC(C)(CCCOc1ccc(/C=C/c2ccc(C(F)(F)F)cc2)cc1)C(=O)O
Output: 205

Input: Quick one: CC(C)(CCCOc1ccc(/C=C/c2ccc(Cl)cc2Cl)cc1)C(=O)O
Output: 32

Input: Quick one: CC(C)(CCCOc1ccc(/C=C/c2ccc(Cl)cc2Cl)cc1Cl)C(=O)O
Output: 20

Input: Quick one: CC(C)(CCCOc1ccc(/C=C/c2ccc(N)cc2)cc1)C(=O)O
Output: 29

Input: Quick one: CC(C)c1ccc(/C=C/c2ccc(OCCCC(C)(C)C(=O)O)cc2)cc1
Output: 17

Input: Quick one: CC(C)(CCCOc1ccc(/C=C/c2ccc(C#N)cc2)cc1)C(=O)O
Output: 23

Input: Quick one: CC(C)(CCCOc1ccc(/C=C/c2ccncc2)cc1)C(=O)O
Output: 115

Input: Quick one: CC(C)(CCCOc1ccc(/C=C/c2ccsc2)cc1)C(=O)O
Output: 152

Input: Quick one: Cc1ccc(/C=C/c2ccc(OCCCC(C)(C)C(=O)O)cc2)cc1
Output: 118

Input: Quick one: CC(C)(CCCOc1ccc(/C=C/c2ccc3ccccc3c2)cc1)C(=O)O
Output: 123
